Provenance of the data: patent US11591326B2

- assay_overview: Pharmacokinetic study in rat
- Assay type: in vivo, Male SD rats
- condition_notes: male, SD, plasma, 10 mg/kg; Rat PK (PO) 10 mpk
property_measured: AUC(0-t) (ng·h/mL)

[P] CC(=O)N1CCC(Nc2ccc3c(c2)C(=O)N(C[C@H](O)CN2CCc4ccccc4C2)CC3)CC1 [Compound 24a]
[Q] CC(=O)N1CCC(Nc2cc(C(=O)NC[C@H](O)CN3CCc4ccccc4C3)ncn2)CC1 [Compound C3, reference compound]
[R] CC(=O)N1CCC(Nc2ccc3c(c2)C(=O)N(C[C@H](O)CN2CCc4ccccc4C2)CCO3)CC1 [Compound 52a]
stdin: Please rank these compounds by AUC(0-t) in descending order. Thanks in advance for listing the labels in the requested order.
stdout: P, R, Q
(P: 3280 ng·h/mL, R: 2260 ng·h/mL, Q: 1400 ng·h/mL)

----------
- assay_overview: Pharmacokinetic study in dog
- Format: in vivo, male beagle dogs
- condition_notes: male, beagle, plasma, 10 mg/kg; Dog PK (PO) 10 mpk
property_measured: AUC(0-t) (ng·h/mL)

compound	endpoint_unit	AUC(0-t)
CC(=O)N1CCC(Nc2ccc3c(c2)C(=O)N(C[C@H](O)CN2CCc4ccccc4C2)CCO3)CC1 [Compound 52a]	ng·h/mL	42100

[P] CC(=O)N1CCC(Nc2ccc3c(c2)C(=O)N(C[C@H](O)CN2CCc4ccccc4C2)CC3)CC1 [Compound 24a]
[Q] CC(=O)N1CCC(Nc2cc(C(=O)NC[C@H](O)CN3CCc4ccccc4C3)ncn2)CC1 [Compound C3, reference compound]
stdin: Of P and Q , which one carries the higher reported AUC(0-t)? Kindly state the label of the option you pick.
stdout: P
(P: 35100 ng·h/mL, Q: 13300 ng·h/mL)

----------
- assay_overview: Pharmacokinetic study in mouse
- Format: in vivo, Male CD-1 mice
- condition_notes: male, CD-1, plasma, 10 mg/kg; Mouse PK (PO) 10 mpk
property_measured: Tmax (min)

molecule	property_measured	recorded_value
CC(=O)N1CCC(Nc2ccc3c(c2)C(=O)N(C[C@H](O)CN2CCc4ccccc4C2)CCO3)CC1 [Compound 52a]	Tmax	15

[a] CC(=O)N1CCC(Nc2ccc3c(c2)C(=O)N(C[C@H](O)CN2CCc4ccccc4C2)CC3)CC1 [Compound 24a]
[b] CC(=O)N1CCC(Nc2cc(C(=O)NC[C@H](O)CN3CCc4ccccc4C3)ncn2)CC1 [Compound C3, reference compound]
stdin: Could you determine which record has the numerically smaller Tmax? Candidates: a and b # reply format: chosen label
stdout: a

----------
- assay_overview: Pharmacokinetic study in dog
- Format: in vivo, male beagle dogs
- condition_notes: male, beagle, plasma, 10 mg/kg; Dog PK (PO) 10 mpk
property_measured: Cmax (ng/mL)

molecule	endpoint_unit	Cmax
CC(=O)N1CCC(Nc2ccc3c(c2)C(=O)N(C[C@H](O)CN2CCc4ccccc4C2)CCO3)CC1 [Compound 52a]	ng/mL	5550

[P] CC(=O)N1CCC(Nc2ccc3c(c2)C(=O)N(C[C@H](O)CN2CCc4ccccc4C2)CC3)CC1 [Compound 24a]
[Q] CC(=O)N1CCC(Nc2cc(C(=O)NC[C@H](O)CN3CCc4ccccc4C3)ncn2)CC1 [Compound C3, reference compound]
stdin: Name the one with the greater Cmax value, either P or Q as given. When you have decided, please share the label of that item.
stdout: P
(P: 4440 ng/mL, Q: 3000 ng/mL)

----------
- assay_overview: Pharmacokinetic study in dog
- Format: in vivo, male beagle dogs
- condition_notes: male, beagle, plasma, 10 mg/kg; Dog PK (PO) 10 mpk
property_measured: bioavailability (%)

[P] CC(=O)N1CCC(Nc2ccc3c(c2)C(=O)N(C[C@H](O)CN2CCc4ccccc4C2)CCO3)CC1 [Compound 52a]
[Q] CC(=O)N1CCC(Nc2ccc3c(c2)C(=O)N(C[C@H](O)CN2CCc4ccccc4C2)CC3)CC1 [Compound 24a]
stdin: Lab notebook, comparison: P versus Q , higher bioavailability goes to which? Bench note: the answer is the label of the chosen record.
stdout: P

----------
- measurement_target: Human recombinant PRMT5 in complex with human recombinant MEP50 (Homo sapiens (Human), UniProt O14744)
- Sequence (O14744 whole entry): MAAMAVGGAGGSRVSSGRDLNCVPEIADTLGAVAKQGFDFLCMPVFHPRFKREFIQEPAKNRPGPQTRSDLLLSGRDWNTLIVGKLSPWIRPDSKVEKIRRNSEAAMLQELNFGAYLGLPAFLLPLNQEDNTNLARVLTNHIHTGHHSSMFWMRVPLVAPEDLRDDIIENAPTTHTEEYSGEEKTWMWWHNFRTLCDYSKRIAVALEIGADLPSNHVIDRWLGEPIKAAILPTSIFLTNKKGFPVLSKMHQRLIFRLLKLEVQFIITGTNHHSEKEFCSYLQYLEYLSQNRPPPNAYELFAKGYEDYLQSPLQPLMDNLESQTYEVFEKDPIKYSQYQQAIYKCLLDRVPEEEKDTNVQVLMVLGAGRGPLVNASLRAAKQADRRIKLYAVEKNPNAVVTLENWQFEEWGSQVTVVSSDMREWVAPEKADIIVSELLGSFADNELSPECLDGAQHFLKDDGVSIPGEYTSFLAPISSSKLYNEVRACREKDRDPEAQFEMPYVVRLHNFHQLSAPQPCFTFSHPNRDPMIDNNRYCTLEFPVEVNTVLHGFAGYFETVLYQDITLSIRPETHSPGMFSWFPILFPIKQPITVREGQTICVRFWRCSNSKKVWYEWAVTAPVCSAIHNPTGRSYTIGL
- Sequence (Q9BQA1 whole entry partner): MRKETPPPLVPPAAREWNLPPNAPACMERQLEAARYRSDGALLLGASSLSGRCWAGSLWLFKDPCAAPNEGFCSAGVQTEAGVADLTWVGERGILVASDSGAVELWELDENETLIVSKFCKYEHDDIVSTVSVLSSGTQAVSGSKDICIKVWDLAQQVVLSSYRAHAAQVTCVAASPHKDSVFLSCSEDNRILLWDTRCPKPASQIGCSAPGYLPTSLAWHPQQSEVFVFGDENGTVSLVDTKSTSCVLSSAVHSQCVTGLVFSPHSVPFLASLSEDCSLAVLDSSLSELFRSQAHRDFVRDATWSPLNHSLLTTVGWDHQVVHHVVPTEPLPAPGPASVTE
- assay_overview: PRMT5/MEP50 AlphaLISA enzyme inhibitory assay
- condition_notes: PRMT5/MEP50 25 nM, SAM 10 μM, Biotin-H4 peptide 30 nM
- Description: Human recombinant PRMT5 in complex with human recombinant MEP50, co-expressed in an insect cell/baculovirus expression system was purchased from Reaction Biology (Malvern, Pa.). […] Anti-H4R3-Me AlphaLISA acceptor beads and Streptavidin labeled AlphaLISA donor beads were obtained from PerkinElmer (Waltham, Mass.). S-adenosylmethionine (SAM), Tween20, dimethylsulfoxide (DMSO), and Tris buffer were obtained from Sigma at the highest level of purity available. […]
pIC50: −log10 of the molar value.
property_measured: pIC50

compound	pIC50
O=C1c2cc(Nc3cnn(C4COC4)c3)ccc2CCN1CC(O)CN1CCc2ccccc2C1 (stereo not shown)	7.68

[P] CC(=O)N1CC2(CC(Nc3ccc4c(c3)C(=O)N(CC(O)CN3CCc5ccccc5C3)CCO4)C2)C1 (stereo not shown)
[Q] Cn1cc(Nc2ccc3c(c2)C(=O)N(C[C@H](O)CN2CCc4ccccc4C2)CC3)cn1 [Compound 12a]
stdin: Choose between P and Q : whose measured pIC50 value is numerically larger? Lab note: record the label of whichever item you select.
stdout: Q
(Q: 7.92, P: 6.86)

[a] CC(=O)N1CCC(Nc2cc3c(cc2F)OCCN(C[C@H](O)CN2CCc4ccccc4C2)C3=O)CC1 [Compound 17a]
[b] Cn1ccc(Nc2ccc3c(c2)C(=O)N(CC(O)CN2CCc4ccccc4C2)CC3)n1 (stereo not shown)
[c] O=C1c2cc(Nc3cnccn3)ccc2OCCN1C[C@H](O)CN1CCc2ccccc2C1
stdin: Kindly order the items shown according to pIC50, from the highest value down. Please respond by ranking the labels in the order requested.
stdout: c, b, a

[P] CC1Cc2ccc(NC3COC3)cc2C(=O)N1CC(O)CN1CCc2ccccc2C1 (stereo not shown)
[Q] Cn1ccc(Nc2ccc3c(c2)C(=O)N(C[C@H](O)CN2CCc4ccccc4C2)CCO3)cc1=O
[R] CC(=O)N1CCC(Nc2cc(F)c3c(c2)C(=O)N(C[C@@H](O)CN2CCc4ccccc4C2)CCO3)CC1
stdin: Please list these compounds in decreasing order of pIC50. Arrange the labels as the request states and list them.
stdout: Q, R, P

----------
- measurement_target: Human recombinant PRMT5 in complex with human recombinant MEP50 (Homo sapiens (Human), UniProt O14744)
- assay_overview: PRMT5/MEP50 AlphaLISA enzyme inhibitory assay
- Type: biochemical
- condition_notes: PRMT5/MEP50 25 nM, SAM 10 μM, Biotin-H4 peptide 30 nM
property_measured: IC50 (nM)

Consider the reported IC50 for these compounds:
compound	property_measured	recorded_value
O=C1c2cc(-c3cncnc3)ccc2CCN1CC(O)CN1CCc2ccccc2C1 (stereo not shown)	IC50	158
Cn1ccc(Nc2ccc3c(c2)C(=O)N(CC(O)CN2CCc4ccccc4C2)CC3)cc1=O (stereo not shown)	IC50	21
Cn1cc(Nc2cc3c(cc2Cl)CCN(CC(O)CN2CCc4ccccc4C2)C3=O)cn1 (stereo not shown)	IC50	487
CC(=O)N1CCC(Nc2ccc3c(c2)C(=O)N(CC(O)CN2CCc4ccccc4C2)CC3)CC1 (racemic)	IC50	14

[I] O=c1c2cc(NC3COC3)ccc2ncn1CC(O)CN1CCc2ccccc2C1 (stereo not shown)
[II] O=C1c2cc(Nc3ccnnc3)ccc2CCN1C[C@H](O)CN1CCc2ccccc2C1 [Compound 28a]
[III] CC(=O)N1CCC(Nc2ccc3c(c2)C(=O)N(C[C@@H](O)CN2CCc4ccccc4C2)CCO3)CC1 [Compound 52b]
[IV] O=C1c2cc(Nc3ccnnc3)ccc2OCCN1CC(O)CN1CCc2ccccc2C1 (racemic)
[V] CC(=O)N1CCC(Nc2cc(F)c3c(c2)C(=O)N(C[C@H](O)CN2CCc4ccccc4C2)CCO3)CC1
stdin: List items by IC50 in falling order. Would you mind listing the labels in the order requested?
stdout: I, III, V, IV, II

----------
- measurement_target: Human recombinant PRMT5 in complex with human recombinant MEP50 (Homo sapiens (Human))
- assay_overview: PRMT5/MEP50 AlphaLISA enzyme inhibitory assay
- Assay type: biochemical
- condition_notes: PRMT5/MEP50 25 nM, SAM 10 μM, Biotin-H4 peptide 30 nM
property_measured: IC50 (nM)

Examples with answers:
compound	property_measured	endpoint_unit	recorded_value
O=C1c2cc(Nc3ccncn3)ccc2OCCN1C[C@H](O)CN1CCc2ccccc2C1 [Compound 37]	IC50	nM	9.9
CC1(C)CN(CC(O)CN2CCc3ccccc3C2)C(=O)c2cc(NC3COC3)ccc21 (stereo not shown) [Compound 15]	IC50	nM	217
Cn1cc(Nc2cnc3c(c2)C(=O)N(CC(O)CN2CCc4ccccc4C2)CC3)cn1 (stereo not shown) [Compound 20]	IC50	nM	132

[a] Cn1cc(-c2ccc3c(c2)C(=O)N(C[C@@H](O)CN2CCc4ccccc4C2)CC3)cn1 [Compound 13]
[b] CC(=O)N1CCC(Nc2ccc3c(c2)C(=O)N(C[C@H](O)CN2CCc4ccccc4C2)CC3)CC1 [Compound 24a]
[c] O=c1c2cc(Nc3ccnnc3)ccc2ncn1CC(O)CN1CCc2ccccc2C1 (stereo not shown) [Compound 31]
[d] O=C1c2cc(Nc3ccnnc3)ccc2C2(CC2)CN1CC(O)CN1CCc2ccccc2C1 (stereo not shown) [Compound 35]
stdin: Order the entries by their reported IC50, beginning at the minimum. # list labels per requested ordering
stdout: d, b, c, a
(d: 6.1 nM, b: 13 nM, c: 179 nM, a: 578 nM)
